# System: human tumor cell lines (approximately 60)
# Assay text: NCI in vitro human tumor cell line screen (SRB), mean graph midpoints over all cell lines
# Type: cell-based
# Condition notes: Homo sapiens; total cell growth inhibition (0% growth), average of all cell lines; 48 h; read-out: log10 TGI mean graph midpoint (converted)
Observable: IC (TGI) (µM)
Quick reminder: number only, in µM, skip the unit.

IN: Find IC (TGI) (human tumor cell lines (approximately 60)) for the entry CCCCCCCCCCCCOC[C@@]12O[C@@H](CN3CCOCC3)[C@@H](O)[C@@H]1OC(C)(C)O2
OUT: 29.5

IN: Find IC (TGI) (human tumor cell lines (approximately 60)) for the entry CCCCCCCCCCCCOC[C@@]12O[C@@H](CN3CCCCCC3)[C@@H](OCCN3CCCCC3)[C@@H]1OC(C)(C)O2
OUT: 7.76

IN: Find IC (TGI) (human tumor cell lines (approximately 60)) for the entry CCCCCCCCCCCCOC[C@@]12O[C@@H](C)[C@@H](OCCN3CCCC3)[C@@H]1OC(C)(C)O2
OUT: 10.5

IN: Find IC (TGI) (human tumor cell lines (approximately 60)) for the entry CCCCCCCCCCCCOC[C@@]12O[C@@H](CN3CCCCCC3)[C@@H](OCCCN3CCCCC3)[C@@H]1OC(C)(C)O2
OUT: 3.72
